experimental-target: Human LBAT (Homo sapiens)
Construct: kept under Geneticin selection
Sequence (Q14973 whole entry): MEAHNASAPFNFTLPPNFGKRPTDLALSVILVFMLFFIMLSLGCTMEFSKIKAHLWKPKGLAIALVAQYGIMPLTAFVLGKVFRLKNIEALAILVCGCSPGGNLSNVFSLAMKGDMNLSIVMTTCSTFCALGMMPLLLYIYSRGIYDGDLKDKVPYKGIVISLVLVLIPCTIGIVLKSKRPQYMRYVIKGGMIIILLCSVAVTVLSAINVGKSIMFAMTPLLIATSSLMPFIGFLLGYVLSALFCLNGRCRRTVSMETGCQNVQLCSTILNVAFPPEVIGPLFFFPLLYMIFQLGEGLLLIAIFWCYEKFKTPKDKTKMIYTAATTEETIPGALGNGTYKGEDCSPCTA
test-summary: LBAT (h/m) assay: 3H-taurocholic acid uptake in human LBAT-overexpressing cells
experimental-conditions: 0.3 μM 3H-taurocholic acid and 7.5 μM cold taurocholic acid, 20 minutes, read-out: hLBAT IC50
pIC50: −log10 of the molar value.
The reader will find reported pIC50 values listed item by item below.
reported-endpoint: pIC50

• CCC1(CC)CN(c2ccc(NC(=O)C(C)(C)C)cc2)c2cc(SC)c(O/C=C(\F)C(=O)O)cc2S(=O)(=O)C1 = 7.08
• CCCCC1(CCCC)CN(c2ccc(NC(=O)CCC)cc2)c2cc(SC)c(O/C=C/C(=O)O)cc2S(=O)(=O)C1 = 6.97
• CCCCC1(CCCC)CN(c2ccc(NC(=O)C3CCCC3)cc2)c2cc(SC)c(O/C=C/C(=O)O)cc2S(=O)(=O)C1 = 7.35
• CCCCC1(CC)CN(c2ccccc2)c2cc(SC)c(O/C=C(\F)C(=O)O)cc2S(=O)(=O)C1 (racemic) [Example 41] = 8.08
• CCCCC1(CCCC)CN(c2ccccc2)c2cc(C#N)c(O/C=C/C(=O)O)cc2S(=O)(=O)C1 = 6.57
• CCCC[C@@]1(CC)CN(c2ccccc2)c2cc(SC)c(O/C=C/C(=O)O)cc2S(=O)(=O)N1C (single isomer, unassigned) = 6.54
• CCCCC1(CC)CN(c2ccccc2)c2cc(OC)c(O/C=C/C(=O)O)cc2S(=O)(=O)C1 (centres unmarked) = 6.00
• CCCCC1(CCCC)CN(c2ccccc2)c2cc(SCC)c(O/C=C(\F)C(=O)O)cc2S(=O)(=O)C1 = 7.09
• CCCCC1(CC)CN(c2ccccc2)c2cc(SC)c(O/C=C(\F)C(=O)O)cc2S(=O)(=O)C1 (single isomer, unassigned) [Example 42] = 8.00
• CCCC[C@@]1(CC)CN(c2ccccc2)c2cc(SC)c(O/C=C\C(=O)O)cc2S(=O)(=O)C1 (single isomer, unassigned) = 5.37
• CCCCC1(CCCC)CN(c2ccc(NCc3ccccc3)cc2)c2cc(SC)c(O/C=C/C(=O)O)cc2S(=O)(=O)C1 = 6.46
• CCCC[C@]1(CC)CN(c2ccccc2)c2cc(F)c(O/C=C/C(=O)O)cc2S(=O)(=O)C1 (single isomer, unassigned) = 6.53
• CCCCC1(CCCC)CN(c2ccc(Br)cc2)c2cc(SC)c(O/C=C/C(=O)O)cc2S(=O)(=O)C1 = 6.27
• CCC1(CC)CN(c2ccc(NCc3ccccc3)cc2)c2cc(SC)c(O/C=C(\F)C(=O)O)cc2S(=O)(=O)C1 = 7.52
